test system: Rattus norvegicus; test: Hypotensive activity in normotensive Wistar rat assessed as decrease in systolic blood pressure at 2.5 to 10 mg/kg, iv after 1 min measured up to 60 mins; type: organism-based, Artery; parameters: dose 2.5-10 mg/kg, route intravenous; details: in vivo

{"compound": "COC(=O)CN1C(=O)N(CC(O)CN2CCN(c3ccccc3)CC2)C(c2ccccc2)(c2ccccc2)C1=O.Cl (racemic)", "Activity": "Non-toxic"}
{"compound": "COC(=O)CN1C(=O)N(CC(O)CN2CCN(c3ccccc3Cl)CC2)C(c2ccccc2)(c2ccccc2)C1=O.Cl (racemic)", "Activity": "Non-toxic"}
{"compound": "COc1ccccc1N1CCN(CCCCN2C(=O)N(C)C(=O)C2(c2ccccc2)c2ccccc2)CC1.Cl", "Activity": "Toxic"}

----------
system: Rattus norvegicus; test: Cardiotoxicity in Wistar rat assessed as effect on P-Q interval at 10 mg/kg, iv after 15 mins; type: toxicity, organism-based; set-up: dose 10 mg/kg, route intravenous; conditions: in vivo, 0.25 h
Binary classification by Activity, with 60 ms as an inclusive lower bound for 1; all other cases are -1.

Some solved entries appear below for comparison.
{"compound": "COC(=O)CN1C(=O)N(CC(O)CN2CCN(c3ccccc3F)CC2)C(c2ccccc2)(c2ccccc2)C1=O.Cl (racemic)", "label-value": -1}
{"compound": "COC(=O)C(C)N1C(=O)N(CC(O)CN2CCN(c3ccccc3OC)CC2)C(c2ccccc2)(c2ccccc2)C1=O.Cl (racemic)", "label-value": -1}
{"compound": "C=CC(C(=O)OC)N1C(=O)N(CC(O)CN2CCN(c3ccccc3OC)CC2)C(c2ccccc2)(c2ccccc2)C1=O.Cl (racemic)", "label-value": -1}
{"compound": "CCOc1ccccc1N1CCN(CC(O)CN2C(=O)N(C)C(=O)C2(c2ccccc2)c2ccccc2)CC1.Cl (racemic)", "label-value": 1}
{"compound": "COC(=O)CN1C(=O)N(CCCCN2CCN(c3ccccc3OC)CC2)C(c2ccccc2)(c2ccccc2)C1=O.Cl", "label-value": 1}

Continue with the next compound.
Hi, just wondering whether COC(=O)CN1C(=O)N(CC(O)CN2CCN(c3ccccc3OC)CC2)C(c2ccccc2)(c2ccccc2)C1=O.Cl (racemic) shows Activity of 60 ms or higher.
1

----------
test system: Rattus norvegicus; experiment: Cardiotoxicity in Wistar rat assessed as effect on QRS interval at 10 mg/kg, iv after 5 mins; format: toxicity, organism-based; parameters: dose 10 mg/kg, route intravenous; details: in vivo
observable: Activity (ms)
Just the number in ms, nothing appended.

Completed entries (count: 6):
{"molecule": "C=CC(C(=O)OC)N1C(=O)N(CC(O)CN2CCN(c3ccccc3OC)CC2)C(c2ccccc2)(c2ccccc2)C1=O.Cl (racemic)", "observable": "Activity", "numeric-value": 23}
{"molecule": "COC(=O)CN1C(=O)N(CC(O)CN2CCN(c3ccccc3F)CC2)C(c2ccccc2)(c2ccccc2)C1=O.Cl (racemic)", "observable": "Activity", "numeric-value": 17}
{"molecule": "CN1C(=O)N(CC(O)CN2CCN(c3ccccc3Cl)CC2)C(c2ccccc2)(c2ccccc2)C1=O.Cl (racemic)", "observable": "Activity", "numeric-value": 16}
{"molecule": "COC(=O)CN1C(=O)N(CC(O)CN2CCN(c3ccccc3OC)CC2)C(c2ccccc2)(c2ccccc2)C1=O.Cl (racemic)", "observable": "Activity", "numeric-value": 18}
{"molecule": "CCOc1ccccc1N1CCN(CC(O)CN2C(=O)N(C)C(=O)C2(c2ccccc2)c2ccccc2)CC1.Cl (racemic)", "observable": "Activity", "numeric-value": 16}
{"molecule": "CN1C(=O)N(CC(O)CN2CCN(c3ccccc3)CC2)C(c2ccccc2)(c2ccccc2)C1=O.Cl (racemic)", "observable": "Activity", "numeric-value": 20}

Give the value of Activity reported for the following: COC(=O)CN1C(=O)N(CCCCN2CCN(c3ccccc3OC)CC2)C(c2ccccc2)(c2ccccc2)C1=O.Cl
19.3

Give the value of Activity reported for the following: COC(=O)C(C)N1C(=O)N(CC(O)CN2CCN(c3ccccc3OC)CC2)C(c2ccccc2)(c2ccccc2)C1=O.Cl (racemic)
15
